As an illustration, consider measured MIC for compounds on Aspergillus niger (ATCC RCMB 05064).
measured_quantity: MIC (µg/mL)

>  <compound>
OC(Cn1cncn1)(Cn1cncn1)c1ccc(F)cc1F [Fluconazole, reference compound]

>  <MIC, µg/mL>
0.49

$$$$
>  <compound>
Fc1ccc(-c2n[nH]c(=S)n2/N=C/c2ccc(Cl)cc2)cc1Oc1ccccc1 [Compound 2b]

>  <MIC, µg/mL>
31.2

$$$$
>  <compound>
Fc1ccc(-c2n[nH]c(=S)n2/N=C/c2cccc(Oc3ccccc3)c2)cc1Oc1ccccc1 [Compound 2e]

>  <MIC, µg/mL>
3.9

$$$$
>  <compound>
Nn1c(S)nnc1-c1ccc(F)c(Oc2ccccc2)c1 [Compound 2]

>  <MIC, µg/mL>
7.81

$$$$
>  <compound>
Fc1ccc(-c2n[nH]c(=S)n2/N=C/c2ccccc2)cc1Oc1ccccc1 [Compound 2a]

>  <MIC, µg/mL>
1.95

$$$$

[a] Nn1c(SCc2cnc(Cl)s2)nnc1-c1ccc(F)c(Oc2ccccc2)c1 [Compound 2g]
[b] Fc1ccc(-c2nn(CN3CCOCC3)c(=S)n2/N=C/c2ccc(Cl)cc2)cc1Oc1ccccc1 [Compound 2c]
[in] Smaller MIC value? Options are a and b Write down the label attached to your selection.
[out] a
(a: 0.98 µg/mL, b: 15.6 µg/mL)

[A] Fc1ccc(/C=N/n2c(-c3ccc(F)c(Oc4ccccc4)c3)n[nH]c2=S)cc1 [Compound 2d]
[B] C=CCSc1nnc(-c2ccc(F)c(Oc3ccccc3)c2)n1N [Compound 2h]
[in] // compare measured MIC, left A , right B , return larger Write down the label attached to your selection.
[out] A
(A: 7.81 µg/mL, B: 0.98 µg/mL)
